experiment: chemical genetic growth profiling, strain panel (AID 1159580);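 note: tested at 20 µM; growth read once vehicle control cultures reached saturation at 30 °C; lower values mean less growth of the strain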; conditions: S. cerevisiae deletion strains, growth OD, locus YKL101W, strain HSL1
In all, about 5,500 compounds went through this assay and about 2,000 (36%) were called active. Inconclusive results (about 18%) are left out. Cut-off read from the data, not from the text of the source: active = normalized growth mostly below about 0.91 (no sharp cut-off); inconclusive = no clear call, values can overlap the other calls; inactive = mostly above about 0.92. The list shows a part of the results.
Outcome codes: active, inactive

Compound: Cc1cc(Cl)ccc1NNC(=O)c1sccc1Cl
Discrete Label: inactive

Compound: Cc1nnc2n1N=C(c1ccc(CC(C)C)cc1)C(C)S2 (configuration not stated)
Discrete Label: inactive

Compound: CCOC(=O)N/N=C\c1cc(Cl)cc(Cl)c1O
Discrete Label: inactive

Compound: CC(C)(C)C(=O)NC(=S)N/N=C\c1cc(Cl)cc(Cl)c1O
Discrete Label: active

Compound: Cc1cc(Cl)ccc1NNC(=O)c1sccc1Br
Discrete Label: inactive

Compound: COCCCNC(=S)N/N=C\c1cc(Cl)cc(Cl)c1O
Discrete Label: inactive

Compound: O=C(NNc1ccc(F)cc1F)c1sccc1Cl
Discrete Label: inactive
